The measured values listed here are drawn from patent US10577363B2.

Answer each item with its documented IC50.
measuredOn: SMYD3 (Homo sapiens (Human), UniProt Q9H7B4)
measurementNotes: SMYD3 biochemical assay (SPA, 3H-SAM methylation of MEKK2 protein substrate)
details: average of n = 1 to n = 50; read-out: SMYD3 Biochem IC50
Record the value in nM, omitting the unit from your answer.

Which IC50 is listed for C[C@@H]1C[C@H](NC(=O)c2cc(C3CC3)on2)CCN1C(=O)c1ccc2c(c1)ncn2C [compound 747] ?
583

Same thing, different compound: C[C@@H]1CN(S(=O)(=O)N2CC[C@H](NC(=O)c3cc(C4CC4)on3)C[C@@H]2C)CCN1 [compound 634]
31.8

Same thing, different compound: Nc1cccc(S(=O)(=O)N2[C@@H]3CCC[C@H]2C[C@H](NC(=O)c2cc(C4CC4)on2)C3)n1 [compound 740]
498

Same thing, different compound: O=C(N[C@H]1C[C@H]2CC[C@@H](C1)N2S(=O)(=O)CCN1CCC(O)C1)c1cc(C2CC2)on1 (stereo partly shown) [compound 690]
138

Same thing, different compound: C[C@H]1CN(S(=O)(=O)CC2CCN(CCC(F)(F)F)CC2)CC[C@H]1NC(=O)c1cc(C2CC2)on1 [compound 698]
179

Same thing, different compound: C[C@H]1CN(S(=O)(=O)CCN)[C@@H](C)C[C@H]1NC(=O)c1cc(C2CC2)on1 [compound 694]
157

Same thing, different compound: C[C@@H]1C[C@H](NC(=O)c2cc(C3CC3)on2)CCN1S(=O)(=O)CCC(N)Cc1ccccc1 (stereo partly shown) [compound 716]
303

Same thing, different compound: NCCCNc1ncccc1S(=O)(=O)N1[C@@H]2CCC[C@H]1C[C@@H](NC(=O)c1cc(C3CC3)on1)C2 [compound 734]
442

Same thing, different compound: C[C@H]1C[C@@H](NC(=O)c2cc(C3CC3)on2)CCN1S(=O)(=O)c1ccncc1 [compound 706]
238

Same thing, different compound: C[C@H]1C[C@@H](NC(=O)c2cc(C3CC3)on2)CCN1S(=O)(=O)N1CCN[C@H](c2ccccc2)C1 [compound 751]
633

Same thing, different compound: O=C(N[C@H]1CCN(S(=O)(=O)CC2CCNCC2)[C@H](Cc2ccccc2)C1)c1cc(C2CC2)on1 [compound 691]
144

Same thing, different compound: O=C(N[C@H]1CCN(S(=O)(=O)C2CCCNC2)[C@@H](Cc2ccccc2)C1)c1cc(C2CC2)on1 (stereo partly shown) [compound 725]
340

Same thing, different compound: O=C(N[C@H]1CCN(S(=O)(=O)CC2CCNCC2)[C@@H](Cc2ccccc2)C1)c1cc(C2CC2)on1 [compound 647]
45.5

Same thing, different compound: C[C@@H]1CN(S(=O)(=O)N2CC[C@H](NC(=O)c3cc(C4CC4)on3)C[C@@H]2C)CCN1C [compound 669]
102

Same thing, different compound: Cc1ccc(S(=O)(=O)N2C3CCC[C@@H]2C[C@@H](NC(=O)c2cc(C4CC4)on2)C3)nc1 [compound 763]
770

Same thing, different compound: O=C(N[C@H]1C[C@H]2CC[C@@H](C1)N2S(=O)(=O)N1CCNC(Cc2ccccc2)C1)c1cc(C2CC2)on1 (stereo partly shown) [compound 749]
590

Same thing, different compound: C[C@@H]1CN(S(=O)(=O)CCN)[C@H](C)C[C@@H]1NC(=O)c1cc(C2CC2)on1 [compound 688]
131

Same thing, different compound: CCC1CN(S(=O)(=O)N2[C@@H]3CC[C@H]2C[C@@H](NC(=O)c2cc(C4CC4)on2)C3)CCN1 (stereo partly shown) [compound 636]
33.2

Same thing, different compound: C[C@H]1CN(S(=O)(=O)CCCNCc2ccccc2)[C@@H](C)C[C@H]1NC(=O)c1cc(C2CC2)on1 [compound 628]
27.3
